# ASSAY: relative permittivity at zero frequency (dimensionless); xn = mol fraction of the nth substance listed
# CONDITION LABEL: 298.15 K; 101.3 kPa; Liquid; Coaxial cylinder capacitor; x2 = 0.4
QUANTITY KIND: relative permittivity at zero frequency

I. O=C1CCCCC1 [cyclohexanone] + CCO
II. O=C1CCCCC1 [cyclohexanone] + CCCCCCCCCCO
Q: Just curious, which one has the larger relative permittivity at zero frequency reading, I or II ? Lab log: write the label of the selected item as the result.
A: I
(I: 16.97, II: 11.44)

###

# ASSAY: relative permittivity at zero frequency (dimensionless); xn = mol fraction of the nth substance listed
# CONDITION LABEL: 298.15 K; 101.3 kPa; Liquid; Coaxial cylinder capacitor; x2 = 0.3
QUANTITY KIND: relative permittivity at zero frequency

COMPOUND: O=C1CCCCC1 [cyclohexanone] + CCCCCCO
OBSERVED: 13.59

COMPOUND: O=C1CCCCC1 [cyclohexanone] + CCCCCCCCO
OBSERVED: 12.87

COMPOUND: O=C1CCCCC1 [cyclohexanone] + CCCCO
OBSERVED: 14.71

COMPOUND: O=C1CCCCC1 [cyclohexanone] + CCO
OBSERVED: 16.36

COMPOUND: O=C1CCCCC1 [cyclohexanone] + CCCCCCCCCCO
OBSERVED: 12.41

COMPOUND: O=C1CCCC1 [cyclopentanone] + OC1CCCCC1
OBSERVED: 12.55

###

# ASSAY: refractive index (Na D-line) (dimensionless)
# CONDITION LABEL: 298.15 K; 101.3 kPa; Liquid; Standard Abbe refractometry
QUANTITY KIND: refractive index

COMPOUND: CCCCCCCCCCO [decan-1-ol]
refractive index: 1.4352

COMPOUND: C1CCCCC1 [cyclohexane]
refractive index: 1.4235

COMPOUND: O=C1CCCCC1 [cyclohexanone]
refractive index: 1.4485

COMPOUND: O=C1CCCC1 [cyclopentanone]
refractive index: 1.4347

COMPOUND: CCCCCCCCO [octan-1-ol]
refractive index: 1.4276

COMPOUND: CCCCCCO [hexan-1-ol]
refractive index: 1.4161

COMPOUND: CCCCO [butan-1-ol]
refractive index: 1.3971

COMPOUND: OC1CCCCC1 [cyclohexanol]
refractive index: 1.4646

COMPOUND: CCO [ethanol]
refractive index: 1.3594

###

# ASSAY: refractive index (Na D-line) (dimensionless); xn = mol fraction of the nth substance listed
# CONDITION LABEL: 298.15 K; 101.3 kPa; Liquid; Standard Abbe refractometry; x2 = 0.3
QUANTITY KIND: refractive index

COMPOUND: O=C1CCCCC1 [cyclohexanone] + CCCCCCCCCCO
QUANTITY KIND: refractive index
OBSERVED: 1.4416

COMPOUND: O=C1CCCCC1 [cyclohexanone] + CCCCO
QUANTITY KIND: refractive index
OBSERVED: 1.4347

COMPOUND: O=C1CCCC1 [cyclopentanone] + OC1CCCCC1
QUANTITY KIND: refractive index
OBSERVED: 1.4423

COMPOUND: O=C1CCCCC1 [cyclohexanone] + CCO
QUANTITY KIND: refractive index
OBSERVED: 1.4339

COMPOUND: O=C1CCCCC1 [cyclohexanone] + CCCCCCCCO
QUANTITY KIND: refractive index
OBSERVED: 1.4403

COMPOUND: O=C1CCCCC1 [cyclohexanone] + CCCCCCO
QUANTITY KIND: refractive index
OBSERVED: 1.4367

###

# ASSAY: relative permittivity at zero frequency (dimensionless); xn = mol fraction of the nth substance listed
# CONDITION LABEL: 298.15 K; 101.3 kPa; Liquid; Coaxial cylinder capacitor; x2 = 0.1
QUANTITY KIND: relative permittivity at zero frequency

MOLECULE: O=C1CCCCC1 [cyclohexanone] + CCO
QUANTITY KIND: relative permittivity at zero frequency
OBSERVED: 15.84
--
MOLECULE: O=C1CCCCC1 [cyclohexanone] + CCCCO
QUANTITY KIND: relative permittivity at zero frequency
OBSERVED: 15.3
--
MOLECULE: O=C1CCCCC1 [cyclohexanone] + CCCCCCCCO
QUANTITY KIND: relative permittivity at zero frequency
OBSERVED: 14.72
--
MOLECULE: O=C1CCCCC1 [cyclohexanone] + CCCCCCO
QUANTITY KIND: relative permittivity at zero frequency
OBSERVED: 14.93
--
MOLECULE: O=C1CCCC1 [cyclopentanone] + OC1CCCCC1
QUANTITY KIND: relative permittivity at zero frequency
OBSERVED: 13.1
--
MOLECULE: O=C1CCCCC1 [cyclohexanone] + CCCCCCCCCCO
QUANTITY KIND: relative permittivity at zero frequency
OBSERVED: 14.59

###

# ASSAY: xn = mol fraction of the nth substance listed
# CONDITION LABEL: 298.15 K; 101.3 kPa; Liquid; Vibrating tube method; x2 = 0.4
QUANTITY KIND: mass density (kg/m3)

MOLECULE: O=C1CCCCC1 [cyclohexanone] + CCCCCCCCO
mass density, kg/m3: 880.35
--
MOLECULE: O=C1CCCCC1 [cyclohexanone] + CCCCCCO
mass density, kg/m3: 885.19
--
MOLECULE: O=C1CCCCC1 [cyclohexanone] + CCO
mass density, kg/m3: 910.02
--
MOLECULE: O=C1CCCCC1 [cyclohexanone] + CCCCO
mass density, kg/m3: 897.77
--
MOLECULE: O=C1CCCCC1 [cyclohexanone] + CCCCCCCCCCO
mass density, kg/m3: 875.85

###

# ASSAY: xn = mol fraction of the nth substance listed
# CONDITION LABEL: 298.15 K; 101.3 kPa; Liquid; Vibrating tube method; x2 = 0.3
QUANTITY KIND: mass density (kg/m3)

MOLECULE: O=C1CCCCC1 [cyclohexanone] + CCCCCCCCO
SCALE UNIT: kg/m3
mass density: 893.85
--
MOLECULE: O=C1CCCCC1 [cyclohexanone] + CCCCO
SCALE UNIT: kg/m3
mass density: 910.57
--
MOLECULE: O=C1CCCCC1 [cyclohexanone] + CCCCCCCCCCO
SCALE UNIT: kg/m3
mass density: 889.41
--
MOLECULE: O=C1CCCCC1 [cyclohexanone] + CCCCCCO
SCALE UNIT: kg/m3
mass density: 898.77
--
MOLECULE: O=C1CCCCC1 [cyclohexanone] + CCO
SCALE UNIT: kg/m3
mass density: 921.48

###

# ASSAY: refractive index (Na D-line) (dimensionless); xn = mol fraction of the nth substance listed
# CONDITION LABEL: 298.15 K; 101.3 kPa; Liquid; Standard Abbe refractometry; x2 = 0.6
QUANTITY KIND: refractive index

COMPOUND: O=C1CCCCC1 [cyclohexanone] + CCCCO
OBSERVED: 1.4204
--
COMPOUND: O=C1CCCCC1 [cyclohexanone] + CCCCCCCCCCO
OBSERVED: 1.4374
--
COMPOUND: O=C1CCCCC1 [cyclohexanone] + CCCCCCCCO
OBSERVED: 1.4338
--
COMPOUND: O=C1CCCCC1 [cyclohexanone] + CCCCCCO
OBSERVED: 1.4267
--
COMPOUND: O=C1CCCCC1 [cyclohexanone] + CCO
OBSERVED: 1.4094
--
COMPOUND: O=C1CCCC1 [cyclopentanone] + OC1CCCCC1
OBSERVED: 1.4509

###

# ASSAY: relative permittivity at zero frequency (dimensionless); xn = mol fraction of the nth substance listed
# CONDITION LABEL: 298.15 K; 101.3 kPa; Liquid; Coaxial cylinder capacitor; x2 = 0.8
QUANTITY KIND: relative permittivity at zero frequency

Known results for compounds:
COMPOUND: O=C1CCCCC1 [cyclohexanone] + CCCCCCCCO
relative permittivity at zero frequency: 10.18

COMPOUND: O=C1CCCCC1 [cyclohexanone] + CCCCO
relative permittivity at zero frequency: 15.97

COMPOUND: O=C1CCCCC1 [cyclohexanone] + CCCCCCO
relative permittivity at zero frequency: 12.57

P. O=C1CCCC1 [cyclopentanone] + OC1CCCCC1
Q. O=C1CCCCC1 [cyclohexanone] + CCO
R. O=C1CCCCC1 [cyclohexanone] + CCCCCCCCCCO
Q: Could you please order the items by relative permittivity at zero frequency, going from the lowest number to the highest? In your reply, arrange the labels in the requested order.
A: R, P, Q
(R: 8.59, P: 13.59, Q: 21.19)

###

# ASSAY: refractive index (Na D-line) (dimensionless); xn = mol fraction of the nth substance listed
# CONDITION LABEL: 298.15 K; 101.3 kPa; Liquid; Standard Abbe refractometry; x2 = 0.8
QUANTITY KIND: refractive index

COMPOUND: O=C1CCCCC1 [cyclohexanone] + CCCCCCCCO
refractive index: 1.4303
//
COMPOUND: O=C1CCCC1 [cyclopentanone] + OC1CCCCC1
refractive index: 1.4575
//
COMPOUND: O=C1CCCCC1 [cyclohexanone] + CCCCCCCCCCO
refractive index: 1.4358
//
COMPOUND: O=C1CCCCC1 [cyclohexanone] + CCCCO
refractive index: 1.4086
//
COMPOUND: O=C1CCCCC1 [cyclohexanone] + CCO
refractive index: 1.3869
//
COMPOUND: O=C1CCCCC1 [cyclohexanone] + CCCCCCO
refractive index: 1.4209
